Tested on: 282377-053-R-J1-PDC complex spheroid viability
procedure-details: Anticancer human tumor 282377-053-R-J1-PDC patient-derived colon adenocarcinoma cell line growth inhibition [RAS]
run-conditions: second compound 0.0949 µM; first compound 0.1 µM; stronger effect = lower value
measurement-kind: viability, T/C (%)
Return type: number; implicit unit %.

These solved cases illustrate the format of a correct answer.
{"columns": ["molecule", "unit-of-measure", "viability, T/C"],
 "data": [
  ["CCC(CC)c1cc(NC2CCC(N)C2)n2nccc2n1 (centres undefined) + CCn1c(-c2cc(N3CCN(C)CC3)cnc2C(C)OC)c2c3cc(ccc31)-c1csc(n1)CC(NC(=O)C1CC1C)C(=O)N1CCCC(N1)C(=O)OCC(C)(C)C2", "%", 87.2],
  ["Nc1ccn(C2OC(CO)C(O)C2(F)F)c(=O)n1 (centres undefined) + CCn1c(-c2cc(N3CCN(C)CC3)cnc2C(C)OC)c2c3cc(ccc31)-c1csc(n1)CC(NC(=O)C1CC1C)C(=O)N1CCCC(N1)C(=O)OCC(C)(C)C2", "%", 106],
  ["NC1c2ccccc2OC12CCN(c1cnc3c(N4CCCc5ncccc54)n[nH]c3n1)CC2 (centres undefined) + CCn1c(-c2cc(N3CCN(C)CC3)cnc2C(C)OC)c2c3cc(ccc31)-c1csc(n1)CC(NC(=O)C1CC1C)C(=O)N1CCCC(N1)C(=O)OCC(C)(C)C2", "%", 118],
  ["CC(Nc1ccc2c(c1)OCCn1cc(N3C(=O)OCC3C(F)F)nc1-2)C(N)=O (centres undefined) + CCn1c(-c2cc(N3CCN(C)CC3)cnc2C(C)OC)c2c3cc(ccc31)-c1csc(n1)CC(NC(=O)C1CC1C)C(=O)N1CCCC(N1)C(=O)OCC(C)(C)C2", "%", 82.9],
  ["CC(C)NCC(C(=O)N1CCN(c2ncnc3c2C(C)CC3O)CC1)c1ccc(Cl)cc1 (centres undefined) + CCn1c(-c2cc(N3CCN(C)CC3)cnc2C(C)OC)c2c3cc(ccc31)-c1csc(n1)CC(NC(=O)C1CC1C)C(=O)N1CCCC(N1)C(=O)OCC(C)(C)C2", "%", 87.6],
  ["Cc1nc(N2CCC3(CC2)COC(C)C3N)c(CO)nc1Sc1ccnc(N)c1Cl (centres undefined) + CCn1c(-c2cc(N3CCN(C)CC3)cnc2C(C)OC)c2c3cc(ccc31)-c1csc(n1)CC(NC(=O)C1CC1C)C(=O)N1CCCC(N1)C(=O)OCC(C)(C)C2", "%", 93.5]
]}

Prompt: Return reported viability, T/C. Input molecule: CC(=O)OC12COC1CC(O)C1(C)C(=O)C(O)C3=C(C)C(OC(=O)C(O)C(NC(=O)OC(C)(C)C)c4ccccc4)CC(O)(C(OC(=O)c4ccccc4)C21)C3(C)C (centres undefined) + CCn1c(-c2cccnc2C(C)OC)c2c3cc(ccc31)N1CCOC(CC(NC(=O)C(C(C)C)N(C)C(=O)C3(F)CCN(C(=O)C#CC(C)(C)N(C)C)CC3)C(=O)N3CCCC(N3)C(=O)OCC(C)(C)C2)C1
Completion: 51.1

Prompt: Return value of viability, T/C for input CC1(O)CCCC1n1c(=O)c(C(F)F)cc2cnc(NC3CCN(S(C)(=O)=O)CC3)nc21 (centres undefined) + CCn1c(-c2cccnc2C(C)OC)c2c3cc(ccc31)N1CCOC(CC(NC(=O)C(C(C)C)N(C)C(=O)C3(F)CCN(C(=O)C#CC(C)(C)N(C)C)CC3)C(=O)N3CCCC(N3)C(=O)OCC(C)(C)C2)C1 , no commentary.
Completion: 120

Prompt: Identify viability, T/C associated with the molecule NC1c2ccccc2OC12CCN(c1cnc3c(N4CCCc5ncccc54)n[nH]c3n1)CC2 (centres undefined) + CCn1c(-c2cccnc2C(C)OC)c2c3cc(ccc31)N1CCOC(CC(NC(=O)C(C(C)C)N(C)C(=O)C3(F)CCN(C(=O)C#CC(C)(C)N(C)C)CC3)C(=O)N3CCCC(N3)C(=O)OCC(C)(C)C2)C1
Completion: 123

====

Some molecules, each annotated with its measured viability, T/C.
Test system: 282377-053-R-J1-PDC complex spheroid viability
procedure-details: Anticancer human tumor 282377-053-R-J1-PDC cell line growth inhibition [RAS];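 also: spheroids exposed to agents for seven days before readout; luminescence viability as percent of DMSO vehicle control wells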
run-conditions: second compound 0.03 µM; first compound 0.316 µM; stronger effect = lower value
Excerpt: RAS pathway inhibitors in Combinations in Complex Spheroids A high-throughput screen of multi-cell type tumor spheroids was designed to identify active combinations of RAS pathway inhibitors and targeted small molecules. Complex spheroids include a stromal component modeled by human endothelial cells (HUVEC) and fibroblasts modeled by human mesenchymal stem cells (MSCs). […] Compounds. […] If the clinical Cmax for an agent had not been determined, the highest concentration tested was 10 microM. […]
Please respond with the number in % and leave the unit unwritten.

{"columns": ["molecule", "unit-of-measure", "numeric-value"],
 "data": [
  ["CC(=O)OC12COC1CC(O)C1(C)C(=O)C(O)C3=C(C)C(OC(=O)C(O)C(NC(=O)OC(C)(C)C)c4ccccc4)CC(O)(C(OC(=O)c4ccccc4)C21)C3(C)C (centres undefined) + CCn1c(-c2cc(N3CCN(C)CC3)cnc2C(C)OC)c2c3cc(ccc31)-c1csc(n1)CC(NC(=O)C1CC1C)C(=O)N1CCCC(N1)C(=O)OCC(C)(C)C2", "%", 41.9],
  ["C=CC(=O)N1CCN(c2nc(OCC3CCCN3C)nc3c(F)c(-c4nc(N)cc(C)c4C(F)(F)F)c(Cl)cc23)C(C)C1 (centres undefined) + CCn1c(-c2cc(N3CCN(C)CC3)cnc2C(C)OC)c2c3cc(ccc31)-c1csc(n1)CC(NC(=O)C1CC1C)C(=O)N1CCCC(N1)C(=O)OCC(C)(C)C2", "%", 93.6],
  ["CC(Nc1ccc2c(c1)OCCn1cc(N3C(=O)OCC3C(F)F)nc1-2)C(N)=O (centres undefined) + CCn1c(-c2cccnc2C(C)OC)c2c3cc(ccc31)N1CCOC(CC(NC(=O)C(C(C)C)N(C)C(=O)C3(F)CCN(C(=O)C#CC(C)(C)N(C)C)CC3)C(=O)N3CCCC(N3)C(=O)OCC(C)(C)C2)C1", "%", 86.5]
]}

# evaluate next
Prompt: Recall and state the measured viability, T/C for CC(Nc1ccc2c(c1)OCCn1cc(N3C(=O)OCC3C(F)F)nc1-2)C(N)=O (centres undefined) + CCn1c(-c2cc(N3CCN(C)CC3)cnc2C(C)OC)c2c3cc(ccc31)-c1csc(n1)CC(NC(=O)C1CC1C)C(=O)N1CCCC(N1)C(=O)OCC(C)(C)C2 .
Completion: 84.1

====

Test system: 282377-053-R-J1-PDC complex spheroid viability
procedure-details: Anticancer human tumor 282377-053-R-J1-PDC cell line growth inhibition [RAS];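 also: spheroids exposed to agents for seven days before readout; luminescence viability as percent of DMSO vehicle control wells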
run-conditions: second compound 3.16 µM; first compound 0.00316 µM; stronger effect = lower value
This listing pairs compounds with measured viability, T/C.
Quick reminder: number only, in %, skip the unit.

Example cases with answers are listed next.
{"columns": ["compound", "viability, T/C / %"],
 "data": [
  ["O=C(c1ccc(F)c(F)c1Nc1ccc(I)cc1F)N1CC(O)([C@@H]2CCCCN2)C1 + C#Cc1c(F)ccc2cc(O)cc(-c3ncc4c(N5CC6CCC(C5)N6)nc(OCC56CCCN5CC(F)C6)nc4c3F)c12", 79.8],
  ["CC(C)n1nc(-c2ccc3oc(N)nc3c2)c2c(N)ncnc21 + C#Cc1c(F)ccc2cc(O)cc(-c3ncc4c(N5CC6CCC(C5)N6)nc(OCC56CCCN5CC(F)C6)nc4c3F)c12", 91.5]
]}

Prompt: GET viability, T/C | system: 282377-053-R-J1-PDC complex spheroid viability | item: C=CC(=O)Nc1cc(Nc2nccc(-c3cn(C)c4ccccc34)n2)c(OC)cc1N(C)CCN(C)C + C#Cc1c(F)ccc2cc(O)cc(-c3ncc4c(N5CC6CCC(C5)N6)nc(OCC56CCCN5CC(F)C6)nc4c3F)c12
Completion: 88.2

====

Test system: 282377-053-R-J1-PDC complex spheroid viability
procedure-details: Anticancer human tumor 282377-053-R-J1-PDC cell line growth inhibition [RAS];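 also: spheroids exposed to agents for seven days before readout; luminescence viability as percent of DMSO vehicle control wells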
run-conditions: second compound 0.1 µM; first compound 0.000949 µM; stronger effect = lower value
viability, T/C overview
Give your result in % as a bare value.

Consider the worked cases shown below.
{"columns": ["compound", "numeric-value"],
 "data": [
  ["CC1(C)CCC(Nc2ncc(C(F)(F)F)c(-c3c[nH]c4c(P(C)(C)=O)c(C#N)ccc34)n2)CN1 (centres undefined) + C#Cc1c(F)ccc2cc(O)cc(-c3ncc4c(N5CC6CCC(C5)N6)nc(OCC56CCCN5CC(F)C6)nc4c3F)c12", 103],
  ["CCc1c2c(nc3ccc(O)cc13)-c1cc3c(c(=O)n1C2)COC(=O)[C@]3(O)CC + C#Cc1c(F)ccc2cc(O)cc(-c3ncc4c(N5CC6CCC(C5)N6)nc(OCC56CCCN5CC(F)C6)nc4c3F)c12", 113],
  ["CC1(C)CCC(Nc2ncc(C(F)(F)F)c(-c3c[nH]c4c(P(C)(C)=O)c(C#N)ccc34)n2)CN1 (centres undefined) + C=CC(=O)N1CCN(c2nc(OCC3CCCN3C)nc3c(F)c(-c4nc(N)cc(C)c4C(F)(F)F)c(Cl)cc23)C(C)C1", 105]
]}

Could you now consider this next compound?
Prompt: Quick one: give measured viability, T/C for CCc1c2c(nc3ccc(O)cc13)-c1cc3c(c(=O)n1C2)COC(=O)[C@]3(O)CC + C=CC(=O)N1CCN(c2nc(OCC3CCCN3C)nc3c(F)c(-c4nc(N)cc(C)c4C(F)(F)F)c(Cl)cc23)C(C)C1
Completion: 115

Source of measurements: PubChem BioAssay AID2060905
